Recorded values, source PubChem BioAssay (NCI).

Test system: MALME-3M melanoma
ASSAY METHOD TEXT: NCI tumour cell line growth inhibition, 48 h
Kindly state TGI for each of the entries shown.

Consider the molecule NC1=C(c2nc(-c3ccccc3)cs2)C(c2ccc(Br)cc2)c2c(c3ccccc3oc2=O)O1 (stereo not drawn) and give its measured TGI.
> 150 mg/L

If you can, please state the reported TGI value of O=C(NCCCCCCNC(=O)OCCSCCn1cc(C(=O)NC(=O)OCc2ccccc2)c(=O)[nH]c1=O)OCCSCCn1cc(C(=O)NC(=O)OCc2ccccc2)c(=O)[nH]c1=O .
> 100 µM

Item under review: COC(=O)CCC1CCC(c2cc(F)ccc2F)(S(=O)(=O)c2ccc(Cl)cc2)CC1 (stereo not drawn) . Reported TGI?
> 100 µM

====

Tested on: DU-145 prostate
ASSAY METHOD TEXT: NCI tumour cell line growth inhibition, 48 h
Please provide measured TGI for the entries that follow.

Quick check: TGI of COC(=O)C1(C(=O)OC)Cc2ccc(C)cc2C2=C1C(=O)c1ccccc1C2=O ?
36.9 µM

For the molecule COC(=O)C1CCCN1C(=O)[C@@H]1CCCN1C(=O)[C@H](Cc1c[nH]c2ccccc12)NC(=S)Nc1cc(C(F)(F)F)cc(C(F)(F)F)c1 (stereo partly specified) , what TGI is on record?
6.47 µM

Any idea what its TGI is? The molecule is CNCCNc1c2c(c(NCCNC)c3[nH]ccc13)C(=O)c1ccccc1C2=O
1.31 µM

Fill in: TGI of COc1cc([C@H]2CC(=O)C[C@H](c3cc(OC)c(OC)c(OC)c3)C23C(=O)c2ccccc2C3=O)cc(OC)c1OC is ___
> 100 µM

Which value of TGI has been reported for COc1ccc(C(=O)/C=C/c2ccc3c(c2)OCO3)c(OCc2ccccc2)c1 in the records?
> 100 µM

Recorded TGI of O=C(Cc1ccc(Cl)cc1)Nc1ccc2oc(-c3ccccc3)nc2c1 , please.
> 100 µM

Name the reported TGI value associated with the molecule CC1(C)C/C(=N/O)c2c(nc3ccc4ccccc4c3c2-c2ccc(Cl)cc2)C1
40.9 µM

Please report the recorded TGI for FC(F)(F)c1ccc(C#Cc2ccccc2C#Cc2ccccc2)cc1 .
> 100 µM

Would you kindly share the measured TGI for Cc1c2c(Cl)c3c(c(Cl)c2c(C)c2c(Cl)c4c(c(Cl)c12)C(c1ccccc1)(c1ccccc1)C4(c1ccccc1)c1ccccc1)C(c1ccccc1)(c1ccccc1)C3(c1ccccc1)c1ccccc1 ?
> 100 µM

I have this molecule here, CN(C)CCCN1c2ccccc2C(C)(C)c2ccccc21 , and I need its recorded TGI.
31.2 µM

Form field: reported TGI of Oc1ccccc1C=Nc1nc(SCc2ccccc2)nc2[nH]ncc12
> 100 µM

Given COc1c(Br)cc(/C=C(\C#N)c2cccnc2)cc1Br , state its recorded TGI.
> 100 µM

# get_value(readout='TGI', item= O=C(Nc1ccccc1)n1[nH]c(=O)n(-c2ccccc2)c1=O )
> 100 µM

Recorded TGI for CCCCCCCCCCC(C(O)c1ccccc1)N1CCCCC1 (stereo unspecified) , please?
6.72 µM

What TGI value was documented for this molecule, C=CCc1ccccc1CC1(OCC)OC(=O)c2ccccc21 (stereo unspecified) ?
> 100 µM

Looking for the measured TGI of Oc1ccccc1CNCC12CC3CC(CC(C3)C1)C2 , can you help?
> 100 µM
